- MEASURED TARGET: CK1ε (Homo sapiens (Human), UniProt P49674)
- Sequence (P49674 whole entry): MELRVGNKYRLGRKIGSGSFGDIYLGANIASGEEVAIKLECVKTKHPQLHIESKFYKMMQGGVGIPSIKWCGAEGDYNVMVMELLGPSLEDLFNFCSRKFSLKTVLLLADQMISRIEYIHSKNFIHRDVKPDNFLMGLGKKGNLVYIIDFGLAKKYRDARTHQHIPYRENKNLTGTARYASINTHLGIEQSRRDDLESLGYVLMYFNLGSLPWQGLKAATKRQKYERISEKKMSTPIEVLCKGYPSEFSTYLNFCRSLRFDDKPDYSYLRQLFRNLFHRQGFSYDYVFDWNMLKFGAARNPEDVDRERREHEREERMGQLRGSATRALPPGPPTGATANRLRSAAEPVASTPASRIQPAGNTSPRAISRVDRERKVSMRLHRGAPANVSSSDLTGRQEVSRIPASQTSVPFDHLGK
- METHOD DESCRIPTION: CK1ε kinase assay (Caliper LABCHIP electrophoretic separation of fluoresceinated peptide substrate and product)
- Format: biochemical
- MEASUREMENT PARAMETERS: 200 pM CK1ε, 50 μM ATP, 1.5 μM peptide substrate, 22 hours at room temperature; read-out: CK1ε (IC50)
This section presents compounds with their documented IC50 values.

Some compounds with recorded IC50:
| SMILES STRUCTURE | MEASURED TARGET | IC50 |
| --- | --- | --- |
| Cc1cc(F)cc(-c2nn3c(c2C(N)=O)CN(C(=O)Nc2ccc(C#N)c(F)c2)CC3)c1 | CK1ε (Homo sapiens (Human), UniProt P49674) | 0.01 to 10 nM |
| N#Cc1ccc(NC(=O)N2CCn3nc(-c4cc(Cl)cc(Cl)c4)c(C(N)=O)c3C2)cc1 | CK1ε (Homo sapiens (Human), UniProt P49674) | 0.01 to 10 nM |
| NC(=O)c1c(-c2ccc(F)c(Cl)c2)nn2c1CN(C(=O)Nc1ccc3ccncc3c1)CC2 | CK1ε (Homo sapiens (Human), UniProt P49674) | 0.01 to 10 nM |
| NC(=O)c1c(-c2cccc(F)c2)nn2c1CN(C(=O)Nc1ccc(-c3ccccc3)cc1)CC2 | CK1ε (Homo sapiens (Human), UniProt P49674) | 0.01 to 10 nM |
| COc1ccc(NC(=O)N2CCn3nc(-c4cccc(F)c4)c(C(N)=O)c3C2)cc1Cl | CK1ε (Homo sapiens (Human), UniProt P49674) | 0.01 to 10 nM |

Give the reported IC50 for NC(=O)c1c(-c2cccc(Cl)c2)nn2c1CN(C(=O)Nc1ccc(Cl)c(Cl)c1)CC2 (system: CK1ε (Homo sapiens (Human), UniProt P49674)).
0.01 to 10 nM

Give the reported IC50 for N#Cc1ccc(NC(=O)N2Cc3c(C(N)=O)c(-c4ccc(F)c(Cl)c4)nn3[C@H](C(F)F)C2)cc1F (system: CK1ε (Homo sapiens (Human), UniProt P49674)).
0.01 to 10 nM

Give the reported IC50 for COc1cccc(NC(=O)N2CCn3nc(-c4cccc(F)c4)c(C(N)=O)c3C2)c1 (system: CK1ε (Homo sapiens (Human), UniProt P49674)).
0.01 to 10 nM
